Values compiled from ChEMBL document CHEMBL1147684.

test: Half life in iv dosed rat; type: ADME, organism-based; conditions: in vivo
RESULT_TYPE: half-life (h)
Numbers only, in h.

## Task I would be grateful if you could share the reported half-life for CC(c1cccc(-c2cc(C(C)(C)S(C)(=O)=O)cc3cccnc23)c1)N(C(=O)c1ccc(F)cc1)c1ccc(S(C)(=O)=O)cc1 (racemic) .
## Result 2

* * *

molecular target: 3',5'-cyclic-AMP phosphodiesterase 4B (Homo sapiens, UniProt Q07343); assay: Inhibition of human GST-PDE4B
Sequence (Q07343 whole entry): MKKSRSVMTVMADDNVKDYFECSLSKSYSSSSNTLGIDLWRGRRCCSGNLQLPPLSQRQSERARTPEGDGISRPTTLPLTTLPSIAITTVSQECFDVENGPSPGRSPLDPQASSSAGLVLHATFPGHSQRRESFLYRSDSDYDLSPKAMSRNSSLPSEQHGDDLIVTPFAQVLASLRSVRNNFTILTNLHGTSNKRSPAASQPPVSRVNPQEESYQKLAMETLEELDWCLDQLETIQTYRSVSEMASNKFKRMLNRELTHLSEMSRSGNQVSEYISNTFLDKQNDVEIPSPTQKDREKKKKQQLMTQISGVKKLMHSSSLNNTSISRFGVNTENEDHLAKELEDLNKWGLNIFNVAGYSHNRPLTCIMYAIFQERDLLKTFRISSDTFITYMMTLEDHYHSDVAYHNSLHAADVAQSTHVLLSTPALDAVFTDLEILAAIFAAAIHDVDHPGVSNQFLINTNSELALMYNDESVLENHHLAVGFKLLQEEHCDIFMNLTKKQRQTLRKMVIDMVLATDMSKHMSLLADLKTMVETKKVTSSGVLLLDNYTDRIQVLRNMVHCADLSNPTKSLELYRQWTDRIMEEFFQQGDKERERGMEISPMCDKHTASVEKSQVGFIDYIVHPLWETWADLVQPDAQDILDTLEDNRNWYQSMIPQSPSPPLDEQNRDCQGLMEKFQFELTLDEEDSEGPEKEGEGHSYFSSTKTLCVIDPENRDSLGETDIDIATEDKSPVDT
RESULT_TYPE: IC50 (pM)
Give bare numbers, in pM.

A selection of reference data follows.
COMPOUND	IC50 [pM]
CC(c1cccc(-c2cc(C(C)(C)S(C)(=O)=O)cc3cccnc23)c1)N(C(=O)c1cccnc1)c1ccc(S(C)(=O)=O)cc1 (stereo not given)	700
CC(c1cccc(-c2cc(C(C)(C)S(C)(=O)=O)cc3cccnc23)c1)N(C(=O)C1CC1)c1ccc(S(C)(=O)=O)cc1 (stereo not given)	600
CC(C)(c1cc(-c2cccc(NC(=O)c3ccc(S(C)(=O)=O)cc3)c2)c2ncccc2c1)S(C)(=O)=O	1200
CC(c1cccc(-c2cc(C(C)(C)S(C)(=O)=O)cc3cccnc23)c1)N(C(=O)c1ccc(F)cc1)c1ccc(S(C)(=O)=O)cc1 (racemic)	600

Pending compound:
## Task Consider the compound shown here: "CC(C)(c1cc(-c2cccc(C(=O)Nc3ccncc3)c2)c2ncccc2c1)S(C)(=O)=O" What is its recorded IC50?
## Result 900
